- Method description: Kinetic solubility of compound in FaSSIF at pH 6.5 incubated for 2 hr by LC-MS analysis
- Type: physicochemical
- Assay conditions: read-out: Kinetic_solubility
Endpoint: solubility kinetic at 2 h (µg/mL)

{"columns": ["Molecule", "Result number"],
 "data": [
  ["Cn1c(=O)n(C2CCC(=O)NC2=O)c2cccc(C#CCO[C@H]3CC[C@H](CN4CCC5(CC4)Cc4cc(NC(=O)c6coc7cccnc67)c(N6CCC(CO)CC6)cc4O5)CC3)c21 (stereo partly specified)", 13.3]
]}

====

- Method description: Oral bioavailability in Sprague-Dawley rat at 10 mg/kg measured up to 24 hrs by LC-MS/MS analysis
- Type: ADME, organism-based
- Assay conditions: in vivo

{"columns": ["Molecule", "F [%]"],
 "data": [
  ["Cn1c(=O)n(C2CCC(=O)NC2=O)c2cccc(C#CCO[C@H]3CC[C@H](CN4CCC5(CC4)Cc4cc(NC(=O)c6coc7cccnc67)c(N6CCC(CO)CC6)cc4O5)CC3)c21 (some centres undefined)", 18],
  ["Cn1c(=O)n(C2CCC(=O)NC2=O)c2cccc(C#CCO[C@H]3CC[C@H](CN4CCC5(CC4)Cc4cc(NC(=O)c6cnn7cc(F)cnc67)c(N6CCC(CO)CC6)cc4O5)CC3)c21 (some centres undefined)", 21],
  ["Cn1c(=O)n(C2CCC(=O)NC2=O)c2cccc(C#CCO[C@H]3CC[C@H](CN4CCC5(CC4)Cc4cc(NC(=O)c6cnn7cccnc67)c(N6CCC(O)CC6)cc4O5)CC3)c21 (some centres undefined)", 15],
  ["Cn1c(=O)n(C2CCC(=O)NC2=O)c2cccc(C#CCO[C@H]3CC[C@H](CN4CCC5(CC4)Cc4cc(NC(=O)c6cnn7cccnc67)c(N6CCC(CO)CC6)cc4O5)CC3)c21 (some centres undefined)", 11]
]}

====

- Tested on: Voltage-gated inwardly rectifying potassium channel KCNH2 (Homo sapiens)
- Sequence (Q12809 whole entry): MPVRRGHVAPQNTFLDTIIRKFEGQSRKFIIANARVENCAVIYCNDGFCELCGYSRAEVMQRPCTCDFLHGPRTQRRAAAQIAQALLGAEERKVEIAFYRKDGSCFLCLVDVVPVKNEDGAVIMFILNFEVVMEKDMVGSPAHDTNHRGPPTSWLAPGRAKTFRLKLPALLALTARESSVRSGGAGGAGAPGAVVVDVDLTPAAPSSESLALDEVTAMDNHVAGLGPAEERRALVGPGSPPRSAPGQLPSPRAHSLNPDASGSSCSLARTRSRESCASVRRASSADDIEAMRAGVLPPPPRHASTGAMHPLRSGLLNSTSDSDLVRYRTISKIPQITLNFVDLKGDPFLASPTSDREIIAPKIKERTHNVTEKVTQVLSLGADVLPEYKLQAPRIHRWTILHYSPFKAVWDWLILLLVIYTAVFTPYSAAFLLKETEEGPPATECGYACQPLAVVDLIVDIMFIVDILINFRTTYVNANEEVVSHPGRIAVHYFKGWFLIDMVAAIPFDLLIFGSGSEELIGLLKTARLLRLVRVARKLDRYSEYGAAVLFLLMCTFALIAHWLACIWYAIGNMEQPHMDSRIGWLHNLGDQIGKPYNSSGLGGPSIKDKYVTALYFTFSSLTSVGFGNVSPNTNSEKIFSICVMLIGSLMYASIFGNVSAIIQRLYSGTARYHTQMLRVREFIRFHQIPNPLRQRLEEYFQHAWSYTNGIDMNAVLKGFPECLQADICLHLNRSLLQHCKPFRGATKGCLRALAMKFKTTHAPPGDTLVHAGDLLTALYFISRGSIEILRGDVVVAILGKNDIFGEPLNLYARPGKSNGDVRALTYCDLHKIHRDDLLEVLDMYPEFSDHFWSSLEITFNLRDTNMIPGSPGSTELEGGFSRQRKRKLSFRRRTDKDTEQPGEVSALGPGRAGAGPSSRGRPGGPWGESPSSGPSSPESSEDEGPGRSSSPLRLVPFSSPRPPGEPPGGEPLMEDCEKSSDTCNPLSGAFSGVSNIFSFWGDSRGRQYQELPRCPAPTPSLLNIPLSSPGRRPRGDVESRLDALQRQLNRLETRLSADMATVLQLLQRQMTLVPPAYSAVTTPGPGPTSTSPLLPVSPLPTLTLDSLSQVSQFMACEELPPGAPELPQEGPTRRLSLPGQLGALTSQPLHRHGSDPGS
- Method description: Inhibition of hERG expressed in HEK293 cells by manual patch clamp assay
- Assay type: toxicity, cell-based
- Design: concentration or dose not given beside the values
Note to self: values exactly at 30% are t. So inhibition (INH) at or above 30% is t, below is f.

{"columns": ["Compound", "Qualitative label"],
 "data": [
  ["Cn1c(=O)n(C2CCC(=O)NC2=O)c2cccc(CN3CC4(CCN(CCN5CCC6(CC5)Cc5cc(NC(=O)c7cnn8cccnc78)c(N7CCC(CO)CC7)cc5O6)CC4)C3)c21 (stereo not given)", "f"],
  ["Cn1c(=O)n(C2CCC(=O)NC2=O)c2cccc(CN3CCC4(CC3)CN(CCN3CCC5(CC3)Cc3cc(NC(=O)c6cnn7cccnc67)c(N6CCC(CO)CC6)cc3O5)C4)c21 (stereo not given)", "t"],
  ["Cn1c(=O)n(C2CCC(=O)NC2=O)c2cccc(CCCOCCNCCN3CCC4(CC3)Cc3cc(NC(=O)c5cnn6cccnc56)c(N5CCC(CO)CC5)cc3O4)c21 (stereo not given)", "f"],
  ["Cn1c(=O)n(C2CCC(=O)NC2=O)c2cccc(CN3CCC(CCN4CCC5(CC4)Cc4cc(NC(=O)c6cnn7cccnc67)c(N6CCC(CO)CC6)cc4O5)CC3)c21 (stereo not given)", "f"],
  ["Cn1c(=O)n(C2CCC(=O)NC2=O)c2cccc(C#CCOCCNCCN3CCC4(CC3)Cc3cc(NC(=O)c5cnn6cccnc56)c(N5CCC(CO)CC5)cc3O4)c21 (stereo not given)", "f"]
]}
